# Assay Target: Aldo-keto reductase family 1 member C4 (Homo sapiens) (UniProt P17516)
# Sequence (P17516 whole entry): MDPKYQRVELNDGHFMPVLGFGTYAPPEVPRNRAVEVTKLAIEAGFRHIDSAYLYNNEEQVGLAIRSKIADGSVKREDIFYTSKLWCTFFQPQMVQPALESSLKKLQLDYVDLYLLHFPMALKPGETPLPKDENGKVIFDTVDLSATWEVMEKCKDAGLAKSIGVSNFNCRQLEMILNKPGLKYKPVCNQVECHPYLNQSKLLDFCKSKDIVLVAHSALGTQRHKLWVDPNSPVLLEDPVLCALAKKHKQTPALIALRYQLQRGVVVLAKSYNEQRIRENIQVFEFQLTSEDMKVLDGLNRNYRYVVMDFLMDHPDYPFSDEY
# Test Summary: Inhibition of N-terminal his-tagged recombinant human AKR1C4 assessed as NADPH consumption using 9,10-phenanthrenequinone as substrate at 33 uM by fluorescence spectroscopic analysis relative to control
Reported Property: inhibition (%)
Respond with the bare value in %.

Provide the documented inhibition with Aldo-keto reductase family 1 member C4 (Homo sapiens) (UniProt P17516) as the system for CC(C)Cc1ccc(C(C)C(=O)O)cc1 (stereo not drawn)
43.9

Please tell me: inhibition of `CCCCn1nc2c(n1)[C@@]1(C)CC[C@H]3[C@@H](CC=C4C[C@@H](O)CC[C@@]43C)[C@@H]1C2` , system Aldo-keto reductase family 1 member C4 (Homo sapiens) (UniProt P17516)?
0

# query: inhibition | item `Cn1nc2c(n1)[C@@]1(C)CC[C@H]3[C@@H](CC=C4C[C@@H](O)CC[C@@]43C)[C@@H]1C2` | system: Aldo-keto reductase family 1 member C4 (Homo sapiens) (UniProt P17516)
0

Param readout = inhibition; param system = Aldo-keto reductase family 1 member C4 (Homo sapiens) (UniProt P17516); param query = `C[C@]12CC[C@@H]3c4ccc(OCc5ccccc5)cc4CC[C@H]3[C@@H]1Cc1nn(Cc3ccccc3)nc12` ; response: value
0

Request body: readout inhibition, system Aldo-keto reductase family 1 member C4 (Homo sapiens) (UniProt P17516), query `CCn1nc2c(n1)[C@@]1(C)CC[C@H]3[C@@H](CC=C4C[C@@H](O)CC[C@@]43C)[C@@H]1C2` . Return the value.
2.81

Hi! What's the reported inhibition for `CCOC(=O)Cn1nc2c(n1)[C@@]1(C)CC[C@H]3[C@@H](CC=C4C[C@@H](O)CC[C@@]43C)[C@@H]1C2` on Aldo-keto reductase family 1 member C4 (Homo sapiens) (UniProt P17516)?
0

Look up inhibition with Aldo-keto reductase family 1 member C4 (Homo sapiens) (UniProt P17516) for this compound: `CC(=O)O[C@H]1CC[C@@]2(C)C(=CC[C@@H]3[C@@H]2CC[C@]2(C)c4nn(C(C)=O)nc4C[C@@H]32)C1`
8.32

Any idea what inhibition came out for `CCn1nc2c(n1)[C@@]1(C)CC[C@@H]3c4ccc(OCc5ccccc5)cc4CC[C@H]3[C@@H]1C2` on Aldo-keto reductase family 1 member C4 (Homo sapiens) (UniProt P17516)?
0

---

# Assay Target: Androgen receptor (Homo sapiens)
# Test Summary: Binding affinity to human recombinant androgen receptor ligand binding domain extracted from saccharomyces cerevisiae coexpressing yellow fluorescent protein assessed as relative binding affinity at 10 uM incubated for 14 to 16 hrs by fluorimetry based fluorescence microscopic analysis
# Condition Summary: time 14-16 hrs
Activity calls are given as the source filed them. The rule behind the calls is not given here.
Reported Property: Activity

Solved cases below.
CCn1nc2c(n1)[C@@]1(C)CC[C@H]3[C@@H](CC=C4C[C@@H](O)CC[C@@]43C)[C@@H]1C2 : inactive
C[C@]12CC[C@H](O)CC1=CC[C@@H]1[C@@H]2CC[C@]2(C)c3nn(Cc4ccccc4)nc3C[C@@H]12 : inactive
CCCCCCCCn1nc2c(n1)[C@@]1(C)CC[C@@H]3c4ccc(OCc5ccccc5)cc4CC[C@H]3[C@@H]1C2 : inactive
CC(=O)O[C@H]1CC[C@@]2(C)C(=CC[C@@H]3[C@@H]2CC[C@]2(C)c4nn(C(C)=O)nc4C[C@@H]32)C1 : inactive

I am curious: what Activity value has been reported for `CCCCn1nc2c(n1)[C@@]1(C)CC[C@H]3[C@@H](CC=C4C[C@@H](O)CC[C@@]43C)[C@@H]1C2` ?
inactive

Quick one: Activity of `Cn1nc2c(n1)[C@@]1(C)CC[C@H]3[C@@H](CC=C4C[C@@H](O)CC[C@@]43C)[C@@H]1C2` ?
inactive

Fill in: Activity of `CCOC(=O)Cn1nc2c(n1)[C@@]1(C)CC[C@H]3[C@@H](CC=C4C[C@@H](O)CC[C@@]43C)[C@@H]1C2` is ___
inactive

Look at this compound and give its reported Activity. `Cn1nc2c(n1)[C@@]1(C)CC[C@@H]3c4ccc(OCc5ccccc5)cc4CC[C@H]3[C@@H]1C2`
inactive

---

# Test system: MCF7
# Test Summary: Cytotoxicity against human MCF7 cells assessed as reduction in cell viability incubated for 72 hrs by resazurin assay
# Condition Summary: MCF7, 72 h
Reported Property: IC50 (µM)
The reply should be a number in µM, with the unit left off.

Which value of IC50 has been reported for `C[C@]12CC[C@H](O)CC1=CC[C@@H]1[C@@H]2CC[C@]2(C)c3nn(CCN)nc3C[C@@H]12` in the records?
22.3

---

# System: HCT-116
# Test Summary: Cytotoxicity against human HCT-116 cells assessed as reduction in cell viability incubated for 72 hrs by resazurin assay
# Condition Summary: HCT-116, 72 h
Reported Property: IC50

Recorded IC50 for `C[C@]12CC[C@H](O)CC1=CC[C@@H]1[C@@H]2CC[C@]2(C)c3nn(CCN)nc3C[C@@H]12` , please?
22.3 µM

---

# Assay Target: Aldo-keto reductase family 1 member C4 (Homo sapiens) (UniProt P17516)
# Test Summary: Inhibition of N-terminal his-tagged recombinant human AKR1C4 assessed as NADPH consumption using 9,10-phenanthrenequinone as substrate at 33 uM by fluorescence spectroscopic analysis relative to control
Would you mind telling me the reported inhibition of each entry?
Give your result in % as a bare value.

Which inhibition reading was recorded for the compound `C[C@]12CC[C@H](O)CC1=CC[C@@H]1[C@@H]2CC[C@]2(C)c3nn(Cc4ccccc4)nc3C[C@@H]12` ?
0

Name the recorded inhibition for `Cn1nc2c(n1)[C@@]1(C)CC[C@@H]3c4ccc(OCc5ccccc5)cc4CC[C@H]3[C@@H]1C2` .
0

Can you look up the measured inhibition of `C[C@]12CC[C@H](O)CC1=CC[C@@H]1[C@@H]2CC[C@]2(C)c3nn(CCN)nc3C[C@@H]12` for me?
2.29

Fill blank: measured inhibition of the compound `CCCCCCCCn1nc2c(n1)[C@@]1(C)CC[C@@H]3c4ccc(OCc5ccccc5)cc4CC[C@H]3[C@@H]1C2` is ____.
0

---

# Assay Target: Androgen receptor (Homo sapiens)
# Test Summary: Binding affinity to human recombinant androgen receptor ligand binding domain extracted from saccharomyces cerevisiae coexpressing yellow fluorescent protein assessed as relative binding affinity at 10 uM incubated for 14 to 16 hrs by fluorimetry based fluorescence microscopic analysis
# Condition Summary: time 14-16 hrs
The source made the active and inactive calls. The calls are words filed in the database; no cut-off is given here.
Reported Property: Activity

C[C@]12CC[C@H](O)CC1=CC[C@@H]1[C@@H]2CC[C@]2(C)c3nn(CCN)nc3C[C@@H]12 : inactive
CCn1nc2c(n1)[C@@]1(C)CC[C@@H]3c4ccc(OCc5ccccc5)cc4CC[C@H]3[C@@H]1C2 : inactive
C[C@]12CC[C@@H]3c4ccc(OCc5ccccc5)cc4CC[C@H]3[C@@H]1Cc1nn(Cc3ccccc3)nc12 : inactive
